Taken from patent US8580825B2.

- EXPERIMENTAL_TARGET: recombinant human FLAP protein (Homo sapiens)
- Sequence (P20292 whole entry): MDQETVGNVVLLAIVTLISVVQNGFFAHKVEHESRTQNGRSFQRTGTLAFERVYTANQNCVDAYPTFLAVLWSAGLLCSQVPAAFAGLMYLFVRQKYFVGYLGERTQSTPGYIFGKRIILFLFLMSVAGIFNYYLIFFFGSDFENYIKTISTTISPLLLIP
- ASSAY_METHOD_TEXT: FLAP binding assay (Scintillation Proximity Assay, displacement of [125I]L-691,831)
- CONDITION: read-out: FLAP SPA IC50
pIC50: −log10 of the molar value.
The threshold is inclusive: pIC50 of exactly 7 counts as Condition met; values below receive Condition not met.

Confirm if pIC50 reported for the molecule CC(C)[C@@](C)(c1ccc(-c2cnc(N)nc2)nc1)c1noc(-c2cnn(C(C)(C)CO)c2)n1 [Example 35] is 7 or above. Condition not met

# check: pIC50 of Cn1cc(-c2nc([C@](C)(c3ccc(-c4cnc(N)nc4)nc3)C3CC3)no2)cn1 [Example 58] is greater than or equal to 7 Condition not met
